Provenance of the data: paper PMC12676205

Assay: THP-1 cytotoxicity (MTT, PMA-differentiated macrophages)
Type: cell-based, human
Details: human, THP-1 cells differentiated into macrophages with PMA, mean ± SD
measured metric: CC50 at 48 h

Recorded results for 2 compounds are shown here.
compound: O=C(C[Se]C(=O)c1ccccc1)Nc1cccc(OC(F)(F)F)c1 [Compound 3]
reported: ≥ 200 µM
--
compound: O=C(C[Se]C(=O)c1ccco1)Nc1cccc(OC(F)(F)F)c1 [Compound 6]
reported: 38.7 µM

Asked: I am curious: what CC50 at 48 h value has been reported for O=C(C[Se]C(=O)c1ccco1)Nc1ccc([N+](=O)[O-])c(C(F)(F)F)c1 [Compound 5] ?
Given back: 108 µM

----------
A short record of GI50 observed with Colon subpanel follows.
State the answer as a number, implicitly in µM.

input smiles: O=C(C[Se]C(=O)c1ccco1)Nc1ccc([N+](=O)[O-])c(C(F)(F)F)c1
measured metric: GI50
result units: µM
reported: 2.58

Asked: Provide value of GI50 for this record tested with Colon subpanel: N#Cc1ccc(NC(=O)C[Se]C(=O)c2ccccc2)cc1C(F)(F)F
Given back: 1.98

Asked: Form entry - test system: Colon subpanel; read-out: GI50; compound: N#Cc1ccc(NC(=O)C[Se]C(=O)c2ccco2)cc1C(F)(F)F
Given back: 1.91

Asked: Fill in the recorded GI50 for this compound, with Colon subpanel as test system: O=C(C[Se]C(=O)c1ccccc1)Nc1ccc([N+](=O)[O-])c(C(F)(F)F)c1
Given back: 2.11

Asked: Enter reported GI50 observed with Colon subpanel for O=C(C[Se]C(=O)c1ccco1)Nc1cccc(OC(F)(F)F)c1
Given back: 7.93

Asked: Which GI50 is reported with Colon subpanel for this entry: O=C(C[Se]C(=O)c1ccccc1)Nc1cccc(OC(F)(F)F)c1 ?
Given back: 8.52

----------
Tested on: L. infantum promastigotes
Test: Leishmanicidal activity against promastigotes (MTT), L. infantum
Format: cell-based, Leishmania infantum
Details: read-out: L. infantum IC50, 48 h, mean ± SD
pIC50: −log10 of the molar value.
measured metric: pIC50

molecule: O=C(C[Se]C(=O)c1ccccc1)Nc1cccc(OC(F)(F)F)c1 [Compound 3]
measured metric: pIC50
reported: > 5.00

Kindly consider the entry below.
Asked: pIC50 for O=C(C[Se]C(=O)c1ccco1)Nc1cccc(OC(F)(F)F)c1 [Compound 6] ?
Given back: > 5.00

----------
System: CNS subpanel
Assay: NCI-60 one-dose screen, CNS subpanel
Assay type: cell-based, human
Conditions: 10 µM, 48 h
Would you mind labelling by average growth cell value, CNS? At or over -60% is yes, under is no.

compound: O=C(C[Se]C(=O)c1ccccc1)Nc1ccc([N+](=O)[O-])c(C(F)(F)F)c1 [Compound 2]
assigned class: no
//
compound: N#Cc1ccc(NC(=O)C[Se]C(=O)c2ccccc2)cc1C(F)(F)F [Compound 1]
assigned class: no
//
compound: O=C(C[Se]C(=O)c1ccccc1)Nc1cccc(OC(F)(F)F)c1 [Compound 3]
assigned class: no

Next, consider the following compound.
Asked: Check if average growth cell value, CNS >= -60% (inclusive). Item: O=C(C[Se]C(=O)c1ccco1)Nc1cccc(OC(F)(F)F)c1 [Compound 6]
Given back: yes

----------
Catalogue of CC50 values
System: Leukemia subpanel
Test: NCI-60 five-dose assay, leukemia subpanel
Type: cell-based
Settings: Homo sapiens, 48 h, read-out: Mean LC50 Leukemia
Number in µM, nothing else.

As a guide, the following entries are already answered.
input smiles: O=C(C[Se]C(=O)c1ccccc1)Nc1cccc(OC(F)(F)F)c1
CC50, µM: 19.6
--
input smiles: N#Cc1ccc(NC(=O)C[Se]C(=O)c2ccccc2)cc1C(F)(F)F
CC50, µM: 4.36

Would you kindly look at the next entry?
Asked: Which measured CC50 value corresponds to O=C(C[Se]C(=O)c1ccccc1)Nc1ccc([N+](=O)[O-])c(C(F)(F)F)c1 ?
Given back: 4.34

----------
Test system: L. major promastigotes
Test: Leishmanicidal activity against promastigotes (MTT), L. major
Format: cell-based, Leishmania major
Settings: read-out: L. major IC50, 48 h, mean ± SD
The molecules listed here are annotated with their IC50.

molecule: O=C(C[Se]C(=O)c1ccccc1)Nc1cccc(OC(F)(F)F)c1 [Compound 3]
system under test: L. major promastigotes
IC50: < 10 µM

Let us examine a further case.
Asked: So what's the measured IC50 for this one? O=C(C[Se]C(=O)c1ccco1)Nc1cccc(OC(F)(F)F)c1 [Compound 6]
Given back: < 10 µM

----------
Tested on: Colon subpanel
Assay: NCI-60 five-dose assay, colon subpanel
Assay type: cell-based
Conditions: Homo sapiens, 48 h, read-out: Mean LC50 Colon
Just a reminder that ties go to F: only CC50 strictly below 30 µM counts as T.

input smiles: O=C(C[Se]C(=O)c1ccccc1)Nc1cccc(OC(F)(F)F)c1
system under test: Colon subpanel
assigned class: F

Asked: Hello, I'm reviewing records and need to know if CC50 of O=C(C[Se]C(=O)c1ccccc1)Nc1ccc([N+](=O)[O-])c(C(F)(F)F)c1 is below 30 µM. Could you check?
Given back: T

Asked: hey, is CC50 for N#Cc1ccc(NC(=O)C[Se]C(=O)c2ccccc2)cc1C(F)(F)F lower than 30 µM or not?
Given back: T

Asked: Report whether reported CC50 is lower than 30 µM (strictly) for N#Cc1ccc(NC(=O)C[Se]C(=O)c2ccco2)cc1C(F)(F)F
Given back: T

Asked: Could you please tell me whether CC50 recorded for O=C(C[Se]C(=O)c1ccco1)Nc1ccc([N+](=O)[O-])c(C(F)(F)F)c1 is less than 30 µM?
Given back: F

Asked: Item O=C(C[Se]C(=O)c1ccco1)Nc1cccc(OC(F)(F)F)c1 : CC50 beneath 30 µM, strictly?
Given back: F

----------
Property: average growth cell value, Breast; scope: individual molecules
Test system: Breast subpanel
Experiment: NCI-60 one-dose screen, breast subpanel
Format: cell-based, human
Settings: 10 µM, 48 h
Numeric answer only, unit % assumed.

Illustrative cases are given below, each with its answer.
molecule: O=C(C[Se]C(=O)c1ccco1)Nc1cccc(OC(F)(F)F)c1 [Compound 6]
system under test: Breast subpanel
measured metric: average growth cell value, Breast
reported: -10.87

molecule: N#Cc1ccc(NC(=O)C[Se]C(=O)c2ccccc2)cc1C(F)(F)F [Compound 1]
system under test: Breast subpanel
measured metric: average growth cell value, Breast
reported: -86.92

molecule: O=C(C[Se]C(=O)c1ccccc1)Nc1cccc(OC(F)(F)F)c1 [Compound 3]
system under test: Breast subpanel
measured metric: average growth cell value, Breast
reported: -45.08

molecule: N#Cc1ccc(NC(=O)C[Se]C(=O)c2ccco2)cc1C(F)(F)F [Compound 4]
system under test: Breast subpanel
measured metric: average growth cell value, Breast
reported: -25.05

molecule: O=C(C[Se]C(=O)c1ccco1)Nc1ccc([N+](=O)[O-])c(C(F)(F)F)c1 [Compound 5]
system under test: Breast subpanel
measured metric: average growth cell value, Breast
reported: -28.95

# evaluate next
Asked: Record request: average growth cell value, Breast value, item O=C(C[Se]C(=O)c1ccccc1)Nc1ccc([N+](=O)[O-])c(C(F)(F)F)c1 [Compound 2]
Given back: -83.18

----------
Test system: Leukemia subpanel
Assay: NCI-60 one-dose screen, leukemia subpanel
Type: cell-based, human
Settings: 10 µM, 48 h
Below, each entry is listed alongside its reported average growth cell value, Leukemia.
Give just the numeric value; % need not be written.

Before answering, review these 4 worked examples.
input smiles: O=C(C[Se]C(=O)c1ccco1)Nc1ccc([N+](=O)[O-])c(C(F)(F)F)c1
result units: %
average growth cell value, Leukemia: 6.59
//
input smiles: O=C(C[Se]C(=O)c1ccccc1)Nc1cccc(OC(F)(F)F)c1
result units: %
average growth cell value, Leukemia: -36.81
//
input smiles: N#Cc1ccc(NC(=O)C[Se]C(=O)c2ccco2)cc1C(F)(F)F
result units: %
average growth cell value, Leukemia: 5.71
//
input smiles: O=C(C[Se]C(=O)c1ccco1)Nc1cccc(OC(F)(F)F)c1
result units: %
average growth cell value, Leukemia: 39.71

Asked: Query average growth cell value, Leukemia on Leukemia subpanel for N#Cc1ccc(NC(=O)C[Se]C(=O)c2ccccc2)cc1C(F)(F)F
Given back: -96.53

Asked: Enter reported average growth cell value, Leukemia observed with Leukemia subpanel for O=C(C[Se]C(=O)c1ccccc1)Nc1ccc([N+](=O)[O-])c(C(F)(F)F)c1
Given back: -94.69

----------
Tested on: Leukemia subpanel
Assay: NCI-60 five-dose assay, leukemia subpanel
Assay type: cell-based
Conditions: Homo sapiens, 48 h, read-out: Mean LC50 Leukemia
CC50 values, listed per item

As a guide, the following entries are already answered.
input smiles: O=C(C[Se]C(=O)c1ccco1)Nc1cccc(OC(F)(F)F)c1
CC50: > 100 µM

input smiles: O=C(C[Se]C(=O)c1ccco1)Nc1ccc([N+](=O)[O-])c(C(F)(F)F)c1
CC50: > 100 µM

We next turn to a different compound, shown below.
Asked: Which measured CC50 value corresponds to N#Cc1ccc(NC(=O)C[Se]C(=O)c2ccco2)cc1C(F)(F)F ?
Given back: > 100 µM
